System: SNB-75 CNS
EXPERIMENTAL PROTOCOL: NCI tumour cell line growth inhibition, 48 h
Collected TGI values appear next to each entry.

[
  {
    "COMPOUND": "CCN1CC2=C(OC(N)=C(C#N)C2c2ccc(Cl)cc2)/C(=C/c2ccc(Cl)cc2)C1 (configuration not stated)",
    "STUDY SYSTEM": "SNB-75 CNS",
    "TGI": "34.2 µM"
  },
  {
    "COMPOUND": "CC1=NC2(C(=O)O)C3(C(=O)O)N=C(C)OC3(C(F)(F)F)C2(C(F)(F)F)O1 (configuration not stated)",
    "STUDY SYSTEM": "SNB-75 CNS",
    "TGI": "> 100 µM"
  },
  {
    "COMPOUND": "CCCN(CCC)C1CC(n2cc(C)c(=O)[nH]c2=O)OC1CO (configuration not stated)",
    "STUDY SYSTEM": "SNB-75 CNS",
    "TGI": "> 100 µM"
  },
  {
    "COMPOUND": "O=C(c1ccccc1)[C@H]1Nc2ccc(Cl)cc2[C@H]2c3ccccc3O[C@H]21",
    "STUDY SYSTEM": "SNB-75 CNS",
    "TGI": "25.6 µM"
  },
  {
    "COMPOUND": "COc1cccc2c1C(=O)c1c(O)c3c(c(O)c1C2=O)C[C@@](O)(/C(C)=N/NC(=O)c1cccc([N+](=O)[O-])c1)C[C@@H]3OC1CC(N)C(O)C(C)O1 (some centres not stated)",
    "STUDY SYSTEM": "SNB-75 CNS",
    "TGI": "1.5 µM"
  },
  {
    "COMPOUND": "COc1cc(OC)c(OC)cc1/C=C/c1ccccn1",
    "STUDY SYSTEM": "SNB-75 CNS",
    "TGI": "> 10 µM"
  },
  {
    "COMPOUND": "CN(c1ccccc1)c1nc(=[N+](C)C)ss1",
    "STUDY SYSTEM": "SNB-75 CNS",
    "TGI": "> 100 µM"
  },
  {
    "COMPOUND": "C/C(=N/NC(=S)N1CCCCCC1)c1cccc(/C(C)=N\\NC(=S)N2CCCCCC2)n1",
    "STUDY SYSTEM": "SNB-75 CNS",
    "TGI": "4.68 µM"
  },
  {
    "COMPOUND": "CCCCCOC(=O)c1c(C)[nH]c(/C=C2\\N=C(c3ccc[nH]3)C=C2OC)c1C",
    "STUDY SYSTEM": "SNB-75 CNS",
    "TGI": "0.619 µM"
  },
  {
    "COMPOUND": "CSC(=Nc1ccccc1)c1c(C)[nH]n(-c2ccccc2)c1=O",
    "STUDY SYSTEM": "SNB-75 CNS",
    "TGI": "> 100 µM"
  },
  {
    "COMPOUND": "COc1cc(OC)c(-n2[nH]c(=O)n(C)c2=O)c(OC)c1",
    "STUDY SYSTEM": "SNB-75 CNS",
    "TGI": "> 100 µM"
  },
  {
    "COMPOUND": "CN1CCN(c2ccc3nc(-c4[nH]ncc4Nc4ncnc5[nH]ccc45)[nH]c3c2)CC1",
    "STUDY SYSTEM": "SNB-75 CNS",
    "TGI": "0.574 µM"
  },
  {
    "COMPOUND": "CC(C)Cn1cnc2c(N)nc3ccccc3c21",
    "STUDY SYSTEM": "SNB-75 CNS",
    "TGI": "> 100 µM"
  },
  {
    "COMPOUND": "CCN(CC)P(=O)(c1ccc2c(c1)OCCOCCOCCOCCO2)N(CC)CC",
    "STUDY SYSTEM": "SNB-75 CNS",
    "TGI": "> 100 µM"
  },
  {
    "COMPOUND": "O=C(O)c1ccccc1NS(=O)(=O)c1ccc(Cl)cc1",
    "STUDY SYSTEM": "SNB-75 CNS",
    "TGI": "> 100 µM"
  },
  {
    "COMPOUND": "COC1CCC(O)C(CO)O1 (configuration not stated)",
    "STUDY SYSTEM": "SNB-75 CNS",
    "TGI": "> 100 µM"
  },
  {
    "COMPOUND": "CCOC(=O)c1nc2ccccc2nc1Nc1cc(OC)c(OC)c(OC)c1",
    "STUDY SYSTEM": "SNB-75 CNS",
    "TGI": "> 100 µM"
  },
  {
    "COMPOUND": "Clc1cccc(-c2cc(-c3ccc4c(c3)OCCO4)[nH]n2)c1",
    "STUDY SYSTEM": "SNB-75 CNS",
    "TGI": "34.8 µM"
  },
  {
    "COMPOUND": "O=C(CN1CCCCC1)c1ccc2[nH]c(=O)oc2c1",
    "STUDY SYSTEM": "SNB-75 CNS",
    "TGI": "87.8 µM"
  },
  {
    "COMPOUND": "NC(=O)N/N=C(\\Cc1cc(=O)oc2cc(O)ccc12)C(=O)Nc1ccccc1C(N)=O",
    "STUDY SYSTEM": "SNB-75 CNS",
    "TGI": "> 100 µM"
  },
  {
    "COMPOUND": "Cc1ccccc1NC(=O)C(=O)C(C1OC(=O)c2ccccc21)[N+](=O)[O-] (configuration not stated)",
    "STUDY SYSTEM": "SNB-75 CNS",
    "TGI": "> 100 µM"
  },
  {
    "COMPOUND": "Cc1cc(NC(=O)NCCCOc2ccc(N3C(N)=NC(N)=NC3(C)C)cc2Cl)ccc1S(=O)(=O)F",
    "STUDY SYSTEM": "SNB-75 CNS",
    "TGI": "24.4 µM"
  },
  {
    "COMPOUND": "COc1ccc(C2c3cc4c(cc3OC(N3CCOCC3)C2C)OCO4)cc1OC (configuration not stated)",
    "STUDY SYSTEM": "SNB-75 CNS",
    "TGI": "21.4 µM"
  },
  {
    "COMPOUND": "O=C1O/C(=C(\\Br)c2ccc([N+](=O)[O-])cc2)c2ccccc21",
    "STUDY SYSTEM": "SNB-75 CNS",
    "TGI": "> 100 µM"
  },
  {
    "COMPOUND": "O=C1CN=C(c2ccccc2)c2ccncc2N1",
    "STUDY SYSTEM": "SNB-75 CNS",
    "TGI": "> 100 µM"
  },
  {
    "COMPOUND": "Cc1cc(C)c2c(c1)CSCc1cc(C)cc(C)c1-2",
    "STUDY SYSTEM": "SNB-75 CNS",
    "TGI": "> 100 µM"
  },
  {
    "COMPOUND": "O=c1[nH]c(=O)n(Cc2ccc(C34CC5CC(CC(C5)C3)C4)c(O)c2)cc1F",
    "STUDY SYSTEM": "SNB-75 CNS",
    "TGI": "32 µM"
  },
  {
    "COMPOUND": "OC1CCN2Cc3ccccc3N=C12 (configuration not stated)",
    "STUDY SYSTEM": "SNB-75 CNS",
    "TGI": "> 100 µM"
  },
  {
    "COMPOUND": "CCN(CC)C(=O)c1cccc2c(OC)ccc(OC)c12",
    "STUDY SYSTEM": "SNB-75 CNS",
    "TGI": "> 100 µM"
  },
  {
    "COMPOUND": "O=S(=O)(O)c1cc(O)c(N=NC2S(=O)(=O)OCCOS2(=O)=O)c2ccccc12",
    "STUDY SYSTEM": "SNB-75 CNS",
    "TGI": "> 100 µM"
  },
  {
    "COMPOUND": "O=S1(=O)[C@H](c2ccccc2)c2c(-c3ccccc3)sc(-c3ccccc3)c2[C@@H]1c1ccccc1",
    "STUDY SYSTEM": "SNB-75 CNS",
    "TGI": "> 100 µM"
  },
  {
    "COMPOUND": "COC(=O)C1=C(C(=O)OC)C23CC4CCC2(C(=O)C1O3)C4(C)C (configuration not stated)",
    "STUDY SYSTEM": "SNB-75 CNS",
    "TGI": "> 100 µM"
  }
]
